B1: Protein piccolo, residues 1058 to 1114; numbered along this chain, Q9Y6V0 (parent)
chain: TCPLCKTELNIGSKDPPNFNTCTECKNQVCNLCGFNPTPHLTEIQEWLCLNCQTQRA

Variants of: B1
Assay: abundance fitness (aPCA) (normalised: wild type 0, dead -1); higher = more abundant; growth selection in yeast, the domain comes from the species named
Conditions: Homo sapiens
abundance fitness: recorded values

Check out these entries, answers already filled in.
TCPLCKTELNIGSKDPPNFNTCTECKNQICNLCGFNPTPHLTEIQEWLCLNCQTQRA | -0.241
TCPLCRTELNIGSKDPPNFNTCTECKNQVCNLCGFNPTPHLTEIQEWLCLNCQTQRA | -0.283
TCPLCKTELNIGSKDPPNFNTCTECKNQVCNLCGFNPTPHLTEIQEWLCLNCQPQRA | 0.156
TCPLCKTELNIGSKDPPNFNTCTECKNQVCNLRGFNPTPHLTEIQEWLCLNCQTQRA | -0.729
TCPLCKTELEIGSKDPPNFNTCTECKNQVCNLCGFNPTPHLTEIQEWLCLNCQTQRA | -0.022

// next entry
Measured abundance fitness of `TCPLCKTELNIGSKDPPNFNTCTECKNQVCNLCGFNPTPHLTEIQEWLCLMCQTQRA` : -0.557
